Where do the numbers come from? From patent US20250368742A1.

Molecular target: T1, human MICA008 on cells (human)
T1 construct: whole, on cells; also called CHO-MICA008; C1R-MICA008
Experiment: flow cytometry, HeLa cells (MICA008)
property name: EC50 (µg/mL)
Express it in µg/mL; write the number only.

Before answering, review these 2 worked examples.
#40 (antibody, human IgG1, V domains shown, also called PL113C03; Hit ID 40) VH: QVQLQQSGPELVKPGASVKVSCKASGYAFTKYNIYWVKQSHGKSLEWIGYIDPYNGGTVYNQKFKGKATLTVDKSSSTAYMHLNSLTSEDSAVYYCATTDGYSLFTYWGQGTLVTVSA VL: DIQMTQTTSSLSASLGDRVTITCSAGQGINNYLNWYQQKPDGTVKLLIFYTSSLQSGVPSRFSGSGSGADYSLTISNLEPEDIATYYCQQYSKLPLTFGAGTKLELK; 0.183
#36 (antibody, human IgG1, V domains shown, also called PL116H11; Hit ID 36) VH: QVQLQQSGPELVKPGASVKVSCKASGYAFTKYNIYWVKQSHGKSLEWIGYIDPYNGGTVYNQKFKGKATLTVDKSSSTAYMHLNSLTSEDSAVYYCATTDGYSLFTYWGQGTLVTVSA VL: DIQMTQTTSSLSASLGDRVTISCRASQDISNYLNWYQQKPDGTVKLLIYYTSRLHSGVPSRFSGSGSGTDYSLTISNLEQEDIATYFCQQGNTLPFTFGSGTKLEIK; 0.189

Ask: Input 3F9 (antibody, human IgG1, kappa, V domains shown, also called benchmark 3F9) VH: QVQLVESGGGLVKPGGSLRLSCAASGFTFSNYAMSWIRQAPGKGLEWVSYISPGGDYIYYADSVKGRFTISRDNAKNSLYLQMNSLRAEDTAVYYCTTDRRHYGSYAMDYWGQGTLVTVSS VL: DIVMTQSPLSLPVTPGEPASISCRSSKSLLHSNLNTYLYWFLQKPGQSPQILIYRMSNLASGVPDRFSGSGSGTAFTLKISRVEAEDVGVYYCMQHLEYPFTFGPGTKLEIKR , output reported EC50.
Result: 0.115

Ask: State, in one line, measured EC50 of 6E1.1.12 (antibody, human IgG1, kappa, V domains shown) VH: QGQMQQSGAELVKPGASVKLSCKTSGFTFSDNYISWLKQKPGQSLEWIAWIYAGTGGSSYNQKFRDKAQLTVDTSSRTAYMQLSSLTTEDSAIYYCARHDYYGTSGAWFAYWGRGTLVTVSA VL: DVLMTQTPLSLPVSLGDQASISCRSSQHIVHSNENTYLEWYLQKPGQSPKLLIYKVSNRFSGVPDRFSGSGSGTDFTLKISRVEAEDLGVYYCFQGSHVPWTFGGGTKVEIKR
Result: 0.269

Ask: Using the record for 13A9 (antibody, human IgG1, kappa, V domains shown) VH: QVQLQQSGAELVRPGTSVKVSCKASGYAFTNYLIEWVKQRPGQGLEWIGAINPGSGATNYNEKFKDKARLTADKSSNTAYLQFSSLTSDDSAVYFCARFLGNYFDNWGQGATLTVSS VL: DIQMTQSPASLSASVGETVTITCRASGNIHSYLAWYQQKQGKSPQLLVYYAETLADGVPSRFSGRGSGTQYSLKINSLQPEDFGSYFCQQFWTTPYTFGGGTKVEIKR , state its measured EC50.
Result: 4.09

Ask: Quote EC50 reported for 1D5 (antibody, human IgG1, kappa, V domains shown, also called ID5) VH: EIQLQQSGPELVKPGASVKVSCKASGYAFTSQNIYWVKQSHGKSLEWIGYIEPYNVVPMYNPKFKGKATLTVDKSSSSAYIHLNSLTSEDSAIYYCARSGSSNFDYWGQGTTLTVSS VL: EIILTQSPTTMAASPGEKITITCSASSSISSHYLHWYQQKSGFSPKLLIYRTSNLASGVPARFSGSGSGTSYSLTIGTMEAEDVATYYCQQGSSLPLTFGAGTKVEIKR please.
Result: 0.034

Ask: Give EC50 for the following binder: #31 (antibody, human IgG1, V domains shown, also called PL116D11; Hit ID 31) VH: EVQLQQSGPELVKPGASVKVSCKASGYAFTKYNIYWVKQSHGKSLEWIGYIDPYNGGTVQNQKFKGKATLTVDKSSSTAYMHLNSLTSEDSAVYYCATTDGYSLFTYWGQGTLVTVSS VL: DIQMTQTTSSLSASLGDRVTISCRASQDIGNYLNWYQQKPDGTVKLLIYYTSRLHSGVPSRFSGSGSGTDYSLTISNLEQEDIATYFCQQGNTLPFTFGSGTKLEIK
Result: 0.183

Ask: Provide only the value of recorded EC50 for #34 (antibody, human IgG1, V domains shown, also called PL111H04; Hit ID 34) VH: QVQLKQSGPELVKPGASVKVSCKASGYAFTKYNIYWVKQSHGKSLEWIGYIDPYNGGTVQNQKFKGKATLTVDKSSSTAYMHLNSLTSEDSAVYYCATTDGYSLFTYWGQGTLVTVSS VL: DIVLTQSPTTMAASPGEKITITCSASSSISSNYLHWYQQKPGFSPKLLIYRTSNLASGVPARFSGSGSGTSYSLTIGTMEAEDVATYYCQQGSSIPFTFGSGTKLEIK
Result: 0.122
